Test system: Escherichia coli TOP10
Assay: shrunken log2 fold change of peptide-encoding DNA abundance (4.5 h post-induction vs induction); higher = less antimicrobial activity (less host growth inhibition)
Conditions: time post-induction: 4.5 h; library: site-saturation at positions 5, 18, 19, 20
Response field class: string, computed from recorded shrunken log2 fold change by ranges low end (below -0.2), middle (-0.2 to below 0.1), high end (0.1 or more)

The following sequences have reported results that may help.
- Chain Sequence: "RRIRSRPPRLPRPRPRPPENPRP"
  System: "Escherichia coli TOP10"
  Category Label: "high end"
- Chain Sequence: "RRIRCRPPRLPRPRPRPYYYPRP"
  System: "Escherichia coli TOP10"
  Category Label: "low end"
- Chain Sequence: "RRIRMRPPRLPRPRPRPPPSPRP"
  System: "Escherichia coli TOP10"
  Category Label: "high end"
- Chain Sequence: "RRIRNRPPRLPRPRPRPWIEPRP"
  System: "Escherichia coli TOP10"
  Category Label: "middle"
- Chain Sequence: "RRIRVRPPRLPRPRPRPIKSPRP"
  System: "Escherichia coli TOP10"
  Category Label: "middle"

Please indicate the class for RRIRWRPPRLPRPRPRPNYGPRP based on its shrunken log2 fold change.
low end

Using the reported shrunken log2 fold change, which band applies to RRIRQRPPRLPRPRPRPVCRPRP ?
high end

Class? Entry: RRIRPRPPRLPRPRPRPNDAPRP
middle

Which category does the recorded shrunken log2 fold change put RRIRDRPPRLPRPRPRPACKPRP in?
middle

Kindly identify the class of RRIRNRPPRLPRPRPRPCSFPRP .
low end

Lab log: RRIRFRPPRLPRPRPRPLVWPRP — assign shrunken log2 fold change category
middle

Band assignment needed for RRIRIRPPRLPRPRPRPYQYPRP please.
middle

Field: class (shrunken log2 fold change) — entry: RRIRDRPPRLPRPRPRPNCPPRP
middle

Exam item: assign RRIRGRPPRLPRPRPRPWFMPRP to the correct category.
low end

Returns: class label. Input: RRIRHRPPRLPRPRPRPNEHPRP
high end

====

Test system: Escherichia coli TOP10;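 further: peptides expressed intracellularly from a pBAD plasmid library in pooled LB shake-flask culture, induced with 0.3% L-arabinose, DNA abundance read by NGS, three biological replicates, DESeq2 with apeglm shrinkage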
Experiment: shrunken log2 fold change of peptide-encoding DNA abundance (4.5 h post-induction vs induction); higher = less antimicrobial activity (less host growth inhibition)
Conditions: time post-induction: 4.5 h; library: site-saturation at positions 5, 18, 19, 20
Parameter Measured: shrunken log2 fold change
One number for each entry.

Example cases with answers are listed next.
- Chain Sequence: "RRIRLRPPRLPRPRPRPFHLPRP"
  Observed Value: -0.177
- Chain Sequence: "RRIRYRPPRLPRPRPRPPASPRP"
  Observed Value: 0.249
- Chain Sequence: "RRIRFRPPRLPRPRPRPYVSPRP"
  Observed Value: -0.438

Quick request: shrunken log2 fold change for each listed item, please.
1. RRIRFRPPRLPRPRPRPKPGPRP
2. RRIRHRPPRLPRPRPRPVMLPRP
3. RRIRPRPPRLPRPRPRPFACPRP
4. RRIRLRPPRLPRPRPRPWGEPRP
5. RRIRCRPPRLPRPRPRPMKKPRP
6. RRIRARPPRLPRPRPRPYSAPRP
7. RRIRGRPPRLPRPRPRPMVFPRP

[0.446, -0.196, -0.0209, -0.0317, 0.0602, -0.256, 0.78]

Look at each sequence and report its shrunken log2 fold change.
1. RRIRFRPPRLPRPRPRPYTTPRP
2. RRIRNRPPRLPRPRPRPRNWPRP
3. RRIRSRPPRLPRPRPRPQSTPRP
4. RRIRNRPPRLPRPRPRPNVVPRP
5. RRIRYRPPRLPRPRPRPPPTPRP

[-0.333, -0.149, -0.24, -0.122, 0.867]

Measured values drawn from the supplement of paper PMC9112550 for this set.
